Source of measurements: patent US20140120095A1

# Tgt: T1, recombinant human VEGF165 (human, UniProt P15692-4 27-191, biotinylated in the competition assays)
# T1 construct: Bought protein; also called hVEGF165; rhVEGF165
# Method notes: AlphaScreen, hVEGF165/hVEGFR2-Fc competition, -HSA
Listing of entries alongside the reported IC50.
I'd appreciate it if you included the unit after the number.

Some entries whose results are on file:
Binder	Readout value
VEGFDLLBII012 (bispecific antibody, PEGylated at the Cys at position 15 of the 35 Gly-Ser linker, VEGFBII23B04 - 35GS(Cys15) - DLLBII136C07) EVQLVESGGGLVQTGDSLRLSCEVSGRTFSSYSMGWFRQAQGKEREFVVAISKGGYKYDSVSLEGRFTISKDNAKNTVYLQINSLKPEDTAVYYCASSRAYGSSRLRLADTYEYWGQGTQVTVSSGGGGSGGGGSGGGGCGGGGSGGGGSGGGGSGGGGSEVQLVESGGGLVQPGGSLRLSCAASGFTFGSYDMSWVRRSPGKGPEWVSSINSGGGSTYYADYVKGRFTISRDNAKNTLYLQMNSLKPEDTAVYYCAADRYIWARQGEYWGAYEYDYWGQGTQVTVSS	0.19 nM
VEGFDLLBII013 (bispecific antibody, PEGylated at the Cys at position 15 of the 35 Gly-Ser linker, VEGFBII23B04 - 35GS(Cys15) - DLLBII129B05) EVQLVESGGGLVQTGDSLRLSCEVSGRTFSSYSMGWFRQAQGKEREFVVAISKGGYKYDSVSLEGRFTISKDNAKNTVYLQINSLKPEDTAVYYCASSRAYGSSRLRLADTYEYWGQGTQVTVSSGGGGSGGGGSGGGGCGGGGSGGGGSGGGGSGGGGSEVQLVESGGGLVQAGGSLRLSCAASGRTFSSYAMAWYRQAPGKEREYVAAIRWSGGTAYYADSVQGRFTISRDNAKNTVYLQMNSLKPEDTAVYYCANRAPDTRLAPYEYDHWGQGTQVTVSS	0.18 nM
VEGFBII23B04 (VHH, not shown: small tags and cut ends, also called VEGFBII23B4; VEGFBII23B04 (wt)) VHH: EVQLVESGGGLVQTGDSLRLSCEVSGRTFSSYSMGWFRQAQGKEREFVVAISKGGYKYDSVSLEGRFTISKDNAKNTVYLQINSLKPEDTAVYYCASSRAYGSSRLRLADTYEYWGQGTQVTVSS	0.19 nM

Query :: # query: IC50 of entry VEGFBII022 (VHH, not shown: small tags and cut ends, Bivalent (heterodimeric) anti-VEGF VHH; also called VEGFBII23B04-9GS-5B05) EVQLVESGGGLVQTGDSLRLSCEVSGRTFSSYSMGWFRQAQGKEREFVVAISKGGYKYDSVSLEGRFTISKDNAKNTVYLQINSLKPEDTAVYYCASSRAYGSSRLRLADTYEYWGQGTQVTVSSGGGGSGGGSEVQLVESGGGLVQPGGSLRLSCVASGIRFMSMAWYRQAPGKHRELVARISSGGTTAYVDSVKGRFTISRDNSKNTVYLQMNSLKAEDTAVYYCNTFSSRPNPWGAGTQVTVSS
Result :: 0.017 nM
